Experiment Notes: NCI Yeast Anticancer Drug Screen. Data for the mlh1 rad18 strain (AID 175)
Settings: S. cerevisiae mlh1 rad18 strain growth inhibition; at 50.0 µM (retest, dose inferred, filed as 5.0); hits give high values
Compounds without any hit were thinned out: in the full panel of roughly 79,000, 15% have a hit. Calls of active or inactive are those of the source. Cut-off read from the data, not from the text of the source: active = growth inhibition above about 70%; inactive = the rest.
Measurement Label: growth inhibition

>  <Compound>
O=C1C2=C(CCCC2)C(=O)C(Cl)C1Cl (configuration not stated)

>  <growth inhibition>
99% (active)

$$$$

Would you mind giving growth inhibition for every compound in the list below?
1. CC(=O)OCCSCCOC(C)=O
2. COc1ccc2c(c1)CCC(N1CCCC(O)C1)C2 (configuration not stated)
3. COc1cc(CSc2ccc(O)cc2)cc(OC)c1OC
4. Nc1ncnc2c1ncn2CC(O)CN(CCO)CCO (configuration not stated) (tested in a mixture with another compound)
5. CC(=N/NC(=S)NCC(C)C)/C(C)=N\Nc1ccc(Cl)cc1

Reply:
1. 90% (active)
2. 98% (active)
3. -4% (inactive)
4. -17% (inactive)
5. 90% (active)

Would you mind giving growth inhibition for every compound in the list below?
1. O=c1c2ccccc2nc(-c2ccccc2)n1NC(=S)Nc1ccc(Cl)cc1[N+](=O)[O-]
2. CCOC(=O)N1c2ccc3ccccc3c2C=CC1C#N (configuration not stated)
3. CCCCCCCCCCCCCCCC[N+](C)(C)CCCCCC(=O)OC

Reply:
1. 10% (inactive)
2. -6% (inactive)
3. 100% (active)

Would you mind giving growth inhibition for every compound in the list below?
1. Nc1cccc2c(O)cccc12
2. CCC1(C)C(C#N)(C#N)C1(C#N)C#N
3. COC1=C(NC(C)=O)C(=O)c2nc(-c3nc(C(=O)O)c(C)c(-c4ccc(OC)c(OC)c4O)c3N)ccc2C1=O

Reply:
["28% (inactive)", "95% (active)", "89% (active)"]
